Measured Efficacy, listed per entry.
System: Cydia pomonella
RUN DESCRIPTION: Ovicidal activity against 24 hr old Cydia pomonella (codling moth) eggs assessed as efficacy at 5 mg/ml sprayed at 19 +/- 1 degC
Type: functional

COMPOUND	Efficacy
CC(=O)Nc1ccc(Oc2ccc(NC(=O)c3ccccn3)cc2)cc1	47.1%
C=CCOC(=O)Nc1ccc(Oc2ccc(NC(=O)c3ccncc3)cc2)cc1	42.5%
O=C(Nc1ccc(Oc2ccccc2)cc1)c1ccccn1	40.7%
C=CCOC(=O)Nc1ccc(Oc2ccc(NC(=O)c3ccccn3)cc2)cc1	27.2%
O=C(Nc1ccc(Oc2ccccc2)cc1)c1cccnc1	26.3%
CCOC(=O)NCCOc1ccc(Oc2ccccc2)cc1 [PHENOXYCARB]	99.1%
CC(=O)Nc1ccc(Oc2ccc(NC(=O)c3cnccn3)cc2)cc1	49.1%
C=CCOC(=O)Nc1ccc(Oc2ccc(N)cc2)cc1	35%
